- assayed-system: Thermolysin (Bacillus thermoproteolyticus)
- assay-protocol: Binding affinity to Bacillus thermoproteolyticus thermolysin using cacodylate buffer by ITC
Active and inactive are the calls of the source. The calls are words filed in the database; no cut-off is given here.
metric: Activity

CC(C)C[C@H](NP(=O)(O)CNC(=O)OCc1ccccc1)C(=O)N[C@@H](CCCCN)C(=O)O	Active
CC(C)C[C@H](NP(=O)(O)CNC(=O)OCc1ccccc1)C(=O)NCCN	Active
CC(C)C[C@H](NP(=O)(O)CNC(=O)OCc1ccccc1)C(=O)NCN	Active
